- target: Dual specificity tyrosine-phosphorylation-regulated kinase 1A (Homo sapiens)
- procedure_summary: Displacement of Kinase tracer 236 from biotinylated DYRK1A (unknown origin) expressed in Escherichia coli BL21 (DE3) incubated for 1.5 hrs by TR-FRET assay
value_kind: pIC50
# pIC50 = -log10(concentration in molar units)

Illustrative cases are given below, each with its answer.
Cc1ccc2c(-c3ccnc(N(C)C)n3)cnn2n1
6.06
COc1ncc(-c2ccnc(N(C)C)n2)s1
5.40
CC1CCCN1c1nccc(-c2cnn3ncccc23)n1 (stereo not given)
6.96

Prompt: Look up pIC50 for this molecule: CN(C)c1ncc(C(F)(F)F)c(-c2cnn3ncccc23)n1
Completion: 4.89

Prompt: Recorded pIC50 for Cc1cnc(N(C)C)nc1-c1cnn2ncccc12 , please?
Completion: 5.55

Prompt: Look up pIC50: CN(C)c1nccc(-c2cnc3ccccn23)n1
Completion: 6.16

Prompt: Returns the measured pIC50 for the input molecule. Input: CN(C)c1nc2c(c(-c3cnn4ncccc34)n1)COC2
Completion: 5.13

Prompt: Can you share its pIC50? I mean this molecule: CN(C)c1ncc(Br)c(-c2cnn3ncccc23)n1
Completion: 5.80

Hello, the source for this data is ChEMBL document CHEMBL4808225, in case you need it.
